Cited source: patent US10501479B2

Target: recombinant human ghrelin receptor (HEK293/GRLN) (Homo sapiens, UniProt Q92847)
Construct: expressed in transfected cells
Sequence (Q92847 whole entry): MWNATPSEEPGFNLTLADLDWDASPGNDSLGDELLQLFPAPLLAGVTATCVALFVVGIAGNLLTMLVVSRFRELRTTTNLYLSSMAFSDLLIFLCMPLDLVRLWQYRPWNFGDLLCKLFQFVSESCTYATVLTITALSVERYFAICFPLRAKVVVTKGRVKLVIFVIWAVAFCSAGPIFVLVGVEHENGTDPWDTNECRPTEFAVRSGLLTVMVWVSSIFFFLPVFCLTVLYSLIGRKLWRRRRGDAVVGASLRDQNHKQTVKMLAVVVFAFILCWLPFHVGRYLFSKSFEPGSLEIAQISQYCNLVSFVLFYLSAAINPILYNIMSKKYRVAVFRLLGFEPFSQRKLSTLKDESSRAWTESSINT
Experiment: Ghrelin inverse agonist potency (EC50) with IP-1 (IP-One HTRF) assay
Type: cell-based
Details: IP-1 assay, HEK293/GRLN; read-out: Activity EC50 (ghrelin inverse agonist potency)
readoutType: EC50 (nM)

INSERT INTO assay_data (molecule, readouttype, unitslabel, obsvalue) VALUES
  ('CC(NC(=O)Nc1ccc(S(=O)(=O)Cc2ccc3c(c2)CNC3)cc1F)c1c(F)cccc1F (centres unmarked)', 'EC50', 'nM', 17.8),
  ('CC(NC(=O)Nc1ccc(S(=O)(=O)Cc2ccc3c(c2)CCN(C)C3)cc1)c1cccc(F)c1F (centres unmarked)', 'EC50', 'nM', 4.2),
  ('COc1ccc(C(C)NC(=O)Nc2ccc(S(=O)(=O)Cc3ccc4c(c3)CCN(C)C4)cc2OC)cc1 (centres unmarked)', 'EC50', 'nM', 16.4),
  ('COc1ccc([C@@H](C)NC(=O)Nc2ccc(S(=O)(=O)Cc3ccc4c(c3)CCN(C)C4)cc2)c(Cl)c1Cl', 'EC50', 'nM', 9.73),
  ('C[C@H](NC(=O)Nc1ccc(S(=O)(=O)Cc2ccc3c(c2)CCNCC3)cc1)c1ccccc1', 'EC50', 'nM', 74.6),
  ('CC(NC(=O)Nc1ccc(S(=O)(=O)Cc2cc3c(c(C(F)(F)F)c2)CNCC3)cc1F)c1cccc(Cl)c1Cl (centres unmarked)', 'EC50', 'nM', 15.4),
  ('CC(NC(=O)Nc1ccc(S(=O)(=O)Cc2ccc(CN3CCOCC3)cc2)cc1)c1ccccc1 (centres unmarked)', 'EC50', 'nM', 310),
  ('CC(NC(=O)Nc1ccc(S(=O)(=O)Cc2ccc3c(c2)CNC3)cc1)c1cccc(F)c1 (centres unmarked)', 'EC50', 'nM', 8.8),
  ('COc1cc2c(cc1CS(=O)(=O)c1ccc(NC(=O)NC(C)c3cccc(Cl)c3Cl)cc1)CCN(C)C2 (centres unmarked)', 'EC50', 'nM', 2.8),
  ('COc1ccccc1C(C)NC(=O)Nc1ccc(S(=O)(=O)Cc2ccc3c(c2)CNC3)cc1 (centres unmarked)', 'EC50', 'nM', 2.68),
  ('CC(NC(=O)N(C)c1ccc(S(=O)(=O)Cc2ccc3c(c2)CN(C)C3)cc1)c1ccccc1 (centres unmarked)', 'EC50', 'nM', 384),
  ('COc1cc(S(=O)(=O)Cc2ccc3c(c2)CN(C)C3)ccc1NC(=O)NC(C)c1cccc2ccccc12 (centres unmarked)', 'EC50', 'nM', 1.8),
  ('CCN(CC)Cc1ccc(CS(=O)(=O)c2ccc(NC(=O)NC(C)c3ccccc3)cc2)cc1 (centres unmarked)', 'EC50', 'nM', 182),
  ('C[C@@H](NC(=O)Nc1ccc(S(=O)(=O)Cc2ccc3c(c2)CN(C)C3(C)C)cc1)c1ccccc1', 'EC50', 'nM', 36),
  ('COc1cccc(OC)c1C(C)NC(=O)Nc1ccc(S(=O)(=O)Cc2ccc3c(c2)CN(C)C3)cc1 (centres unmarked)', 'EC50', 'nM', 33.3),
  ('COCCN1Cc2ccc(CS(=O)(=O)c3ccc(NC(=O)NC(C)c4ccccc4)cc3)cc2C1 (centres unmarked)', 'EC50', 'nM', 6.5),
  ('CC(NC(=O)Nc1ccc(S(=O)(=O)Cc2ccc3c(c2)CN(CC2CCCO2)C3)cc1)c1ccccc1 (centres unmarked)', 'EC50', 'nM', 20.9),
  ('COc1cc(S(=O)(=O)Cc2ccc3c(c2)CCN(C)C3)ccc1NC(=O)NC(C)c1c(F)cccc1F (centres unmarked)', 'EC50', 'nM', 4.3),
  ('CC(NC(=O)Nc1ccc(S(=O)(=O)Cc2ccc3c(c2)CNC3)cc1)c1ccncc1 (centres unmarked)', 'EC50', 'nM', 685),
  ('CC(NC(=O)Nc1ccc(S(=O)(=O)Cc2ccc3c(c2)CN(C)C3)cc1)c1ccccn1 (centres unmarked)', 'EC50', 'nM', 935),
  ('COc1cc(S(=O)(=O)Cc2ccc(CO)cc2)ccc1NC(=O)NC(C)c1cccc(Cl)c1Cl (centres unmarked)', 'EC50', 'nM', 61.2),
  ('C[C@@H](NC(=O)Nc1ccc(S(=O)(=O)Cc2ccc3c(c2)CCN(C)C3)cc1)c1cccc(Cl)c1Cl', 'EC50', 'nM', 2.1),
  ('CC(=O)Oc1ccc(C(C)NC(=O)Nc2ccc(S(=O)(=O)Cc3ccc4c(c3)CNC4)cc2)cc1 (centres unmarked)', 'EC50', 'nM', 184),
  ('COc1cc2c(cc1CS(=O)(=O)c1ccc(NC(=O)NC(C)c3cccc(Cl)c3Cl)cc1)CCNC2 (centres unmarked)', 'EC50', 'nM', 52.6),
  ('CC(NC(=O)Nc1ccc(S(=O)(=O)Nc2ccc3c(c2)CN(C)C3)cc1)c1ccccc1 (centres unmarked)', 'EC50', 'nM', 31.2),
  ('C[C@@H](NC(=O)Nc1ccc(S(=O)(=O)Nc2ccc3c(c2)CN(C)C3)cc1)c1ccccc1', 'EC50', 'nM', 10.5),
  ('COc1cc(S(=O)(=O)Cc2ccc3c(c2)CNC3)ccc1NC(=O)NC(C)c1c(F)cccc1F (centres unmarked)', 'EC50', 'nM', 4.3),
  ('COc1cc(S(=O)(=O)Cc2ccc3c(c2)CN(C)C3)ccc1NC(=O)NC(C)c1ccccc1 (centres unmarked)', 'EC50', 'nM', 4.6),
  ('CN1Cc2ccc(CS(=O)(=O)c3ccc(NC(=O)NC4COc5ccccc54)cc3)cc2C1 (centres unmarked)', 'EC50', 'nM', 130),
  ('CC(NC(=O)Nc1ccc(S(=O)(=O)Cc2nc3c(s2)CN(C)CC3)cc1)c1cccc(Cl)c1Cl (centres unmarked)', 'EC50', 'nM', 1.43),
  ('CC(NC(=O)Nc1ccc(S(=O)(=O)Cc2cc3c(s2)CN(C)CC3)cc1)c1cccc(Cl)c1Cl (centres unmarked)', 'EC50', 'nM', 2.4),
  ('CC(NC(=O)Nc1ccc(S(=O)(=O)Cc2ccc3c(c2)CNC3)cc1)c1ccccn1 (centres unmarked)', 'EC50', 'nM', 161);
